target-under-test: T1, dSNF1-96 (RRM1) (Drosophila melanogaster, UniProt P43332 1-96)
T1 sequence: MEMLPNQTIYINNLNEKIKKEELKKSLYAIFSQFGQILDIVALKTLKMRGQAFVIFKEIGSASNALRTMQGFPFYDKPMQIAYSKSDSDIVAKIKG
assay: ITC; 1 mM Mg2+, 10 C; n 0.781; ITC: 150 mM KCl, 1 mM MgCl2, 20 mM HEPES-NaOH pH 7.5, 5% glycerol, 10 C; NMR: 50 mM KCl, 20 mM sodium cacodylate pH 6.5, 2 mM EDTA, 23 C; filter binding: KCl varied, other conditions not stated
details: protein: recombinant; tags: N-terminal His6, TEV-cleaved; hairpin, 11-nt loop, U:G closing pair, blunt
observable: Kd (nM)

>>> experimental_result("CCAGGACGUAUUGCAGUACCGCGUCCUGG (structured_RNA) [dU2SLIV (ITC)]")
782
